Let's look at some compounds and their measured Ki.
# test-target: CCR9 (Homo sapiens (Human), UniProt P51686)
# Sequence (P51686 whole entry): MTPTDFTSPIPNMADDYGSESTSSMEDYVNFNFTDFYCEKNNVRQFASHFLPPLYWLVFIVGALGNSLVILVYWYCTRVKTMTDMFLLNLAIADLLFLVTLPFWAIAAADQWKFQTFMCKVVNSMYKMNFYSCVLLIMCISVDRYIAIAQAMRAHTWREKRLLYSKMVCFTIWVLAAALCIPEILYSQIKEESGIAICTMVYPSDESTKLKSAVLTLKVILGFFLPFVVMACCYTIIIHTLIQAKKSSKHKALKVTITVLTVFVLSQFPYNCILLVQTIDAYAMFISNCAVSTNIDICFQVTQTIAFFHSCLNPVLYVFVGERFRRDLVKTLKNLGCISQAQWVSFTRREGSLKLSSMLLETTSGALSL
# assay-procedure: FLIPR calcium flux assay using hCCR9 over expressed cells (Chem1-hCCR9), TECK stimulation
# Format: cell-based
# test-context: Chem1-hCCR9 overexpressing cells
reported-property: Ki (nM)

> print(dat)
                                   compound                               test.target  reported.property  recorded.number
1  COc1ncc(C)cc1N1C(=O)c2c(Cl)ccc(NS(=O)(=O)c3ccc(C(C)(C)C)cc3)c2C1=O [Compound 261]  CCR9 (Homo sapiens (Human), UniProt P51686)                 Ki               11
2  CC(C)(C)c1ccc(S(=O)(=O)Nc2ccc(Cl)c3c2C(=O)N(c2cccc(C#N)c2)C3=O)cc1 [Compound 120]  CCR9 (Homo sapiens (Human), UniProt P51686)                 Ki               90
3  CC(C)(C)c1ccc(S(=O)(=O)Nc2ccc(Cl)c3c2C(=O)N(Cc2cc[n+]([O-])cc2)C3=O)cc1 [Compound 209]  CCR9 (Homo sapiens (Human), UniProt P51686)                 Ki               77
